Tested on: SF-539 CNS
EXPERIMENTAL_DETAILS: NCI tumour cell line growth inhibition, 48 h
The following molecules are listed with their measured TGI values.
Kindly answer with a numeric value in µM, unit omitted.

Solved entries:
• COC1=CC(=O)CC(C)C12Oc1c(Cl)c(OC)cc(OC)c1C2=O (configuration not stated) = 42.1
• COc1ncc(Nc2ncc([C@@H](C)N3CCN(S(C)(=O)=O)CC3)cc2-c2nc(C)nc(N)n2)cc1F = 1.45
• COC(=O)C1=C(O)[C@H](C(=O)OC)C2(O)C(C(=O)OC)[C@H](c3ccc(OC(=O)C(C)c4ccc(CC(C)C)cc4)cc3)C[C@@H]1[C@@H]2C(=O)OC (some centres not stated) = 8.05
• CCOC(=O)C(=O)CC1=Nc2ccccc2SC(c2cccc(C)c2)C1 (configuration not stated) = 35.1
• CC1CC/C(=C\c2ccc(F)cc2)C(=O)/C1=C/c1ccc(F)cc1 (configuration not stated) = 9.15
• COc1ccc2c(c1)c(-c1nc(-c3c[nH]c4ccncc34)cs1)cn2C = 3.09
• CCOCCCn1c2c(c3c(O)cccc31)C(=O)c1ccccc1-2 = 63.3
• O=C1CC[C@@]2(O)[C@H]3Cc4ccc(-c5ccccc5)c5c4[C@@]2(CCN3CC2CC2)[C@H]1O5 = 33.5

Query: Could you share which TGI value was measured for CCCCCCCCCCCCCCCCOP(=O)(O)OCC(N)C(=O)O (configuration not stated) ?
Response: 39.8

Query: Could you share which TGI value was measured for COC(=O)C1Cc2c(n(C)c3ccccc23)C(CCC(=O)O)N1Cc1ccccc1 (configuration not stated) ?
Response: 58

Query: Could you share which TGI value was measured for CNC(=O)c1c(NC(=O)c2ccc(C(C)(C)C)cc2)sc2c1CCC(=O)C2 ?
Response: 1.22

----------
Test system: K-562 leukemia
EXPERIMENTAL_DETAILS: NCI tumour cell line growth inhibition, 48 h
The following molecules are listed with their measured TGI values.

Solved entries:
* Clc1cccc(NN=Nc2ccc(-c3nc4ccccc4s3)cc2)c1 | 92.5 µM
* CN(c1ccc(C(=O)c2ccc(N(C)S(C)(=O)=O)cc2)cc1)S(C)(=O)=O | > 100 µM
* O=C(O)c1ccc(C2=Cc3cc(Cl)ccc3OC2)cc1 | > 100 µM
* NC1=Nc2cc(Cl)ccc2Sc2nc3ccccc3n21 | > 100 µM
* COCN1COCN=C1NC#N | > 100 µM

Query: Could you share which TGI value was measured for CC(C)(C)c1ccc(Oc2ccc(N)cn2)cc1 ?
Response: > 100 µM

Query: Could you share which TGI value was measured for Cc1c(N=Nc2ccccc2)c(C)n(C2OC(CO)C(O)C(O)C2O)c(=S)c1C#N (stereo unspecified) ?
Response: > 100 µM

Query: Could you share which TGI value was measured for Nc1nc([Se])c2ncn(C3OC(CO)C(O)C3O)c2n1 (stereo unspecified) ?
Response: > 100 µM

Query: Could you share which TGI value was measured for CCC(C)[C@H](NC(=O)Nc1cc(C(F)(F)F)cc(C(F)(F)F)c1)C(=O)N[C@@H](Cc1cn(C)cn1)C(=O)OC (stereo partly specified) ?
Response: 2.44 µM

Query: Could you share which TGI value was measured for NC(CCOCCP(=O)(O)O)C(=O)O (stereo unspecified) ?
Response: > 100 µM

Query: Could you share which TGI value was measured for O=C(Nc1cccc(O)c1)c1ccc(NC2=C(Cl)C(=O)N(Cc3ccc(Cl)cc3Cl)C2=O)cc1 ?
Response: 3.96 µM

----------
The following compounds are listed with their measured TGI values.
Tested on: UACC-62 melanoma
EXPERIMENTAL_DETAILS: NCI tumour cell line growth inhibition, 48 h

Solved entries:
• O=c1[nH]cc(Cl)c(=O)[nH]1 = > 100 µM
• C[C@@H]1C(=O)C[C@H]2C(C)(C)CCC[C@]2(C)[C@@]1(O)CCc1ccoc1 = > 100 µM
• O=C(/C=C(\S/C=C(/c1ccccc1)N1CCn2c(C(=O)c3ccccc3)c(C(=O)c3ccccc3)c(C(=O)c3ccccc3)c21)C(=O)c1ccccc1)c1ccccc1 = > 10 µM

Proceeding to the next compound to report its TGI.
Query: Could you share which TGI value was measured for COc1ccc(/C(COc2ccc3oc(-c4ccccc4)cc(=O)c3c2)=N\O)cc1 ?
Response: 2.22 µM

----------
Test system: MOLT-4 leukemia
EXPERIMENTAL_DETAILS: NCI tumour cell line growth inhibition, 48 h
MEASURED_METRIC: TGI (µM)
Kindly answer with a numeric value in µM, unit omitted.

* Cc1ccc(S(=O)(=O)SC(C)(C)C)cc1 | 41.5
* COc1ccc2c3c([nH]c2c1[N+](=O)[O-])C(C)N(Cc1ccccc1)CC3 (stereo unspecified) | 23.4

Proceeding to the next compound to report its TGI.
Query: Could you share which TGI value was measured for CCN(CC)CCCNc1cc(OC)cc2nc3cc(Cl)ccc3nc12 ?
Response: 13.7

----------
The following compounds are listed with their measured TGI values.
System: UACC-62 melanoma
EXPERIMENTAL_DETAILS: NCI tumour cell line growth inhibition, 48 h

Solved entries:
- Cn1ncc2c(Cl)ncnc21: > 100 µM
- CC(=O)Oc1ccc2c(c1)CC[C@@H]1C2[C@@H](O[N+](=O)[O-])C[C@@]2(C)C1CC[C@@H]2O[N+](=O)[O-] (stereo partly specified): 32.5 µM
- COc1ccc(N=NC(=O)NC(CC(C)C)C(N)=O)cc1 (stereo unspecified): > 100 µM

Query: Requested read-out TGI, target or system UACC-62 melanoma, entry CC1(C)CCC(C)(C)C1C(=O)NC(O)C(=O)O (stereo unspecified)
Response: > 100 µM

Query: Requested read-out TGI, target or system UACC-62 melanoma, entry COC1=CC2(CC(OC)=C1OC)OC21COc2ccccc2C1=O (stereo unspecified)
Response: > 100 µM

Query: Requested read-out TGI, target or system UACC-62 melanoma, entry O=C(NC(=O)c1cc(-c2ccccc2)n[nH]1)c1ccccc1
Response: > 100 µM

----------
Test system: KM12 colon
EXPERIMENTAL_DETAILS: NCI tumour cell line growth inhibition, 48 h
Record y whenever TGI is at 30 µM or higher; record n when lower.

Below, 7 compounds whose answers are already recorded.
* CC(=O)c1c2c(cc3c1CC1(C3)Cc3cc4c(c(C(C)=O)c3C1)CCC4)CCC2 | y
* Nc1nc([Se])c2ncn(C3OC(CO)C(O)C3O)c2n1 (stereo not given) | y
* CC1=C(SCCC(=O)OC(C[Se]C2=C(C)C(=O)c3ccccc3C2=O)C(=O)NCCCCCC(=O)OCc2ccccc2)C(=O)c2ccccc2C1=O (stereo not given) | n
* O=c1[nH]c2ccccc2nc1/C=C(\O)c1ccccc1O | y
* O=C(N=c1ccc2nc(=O)[nH]n(O)c-2c1)C(F)(F)F | y
* O=C1CC[C@@]2(O)[C@H]3Cc4ccc(-c5ccccc5)c5c4[C@@]2(CCN3CC2CC2)[C@H]1O5 | y
* O=C1/C=C(/c2ccc(O)cc2)[C@@H](O)Cc2ccc(O)cc2O1 | y

With those in mind, consider the next compound.
Query: Please indicate if the recorded TGI for CC1C(C)N(C(=O)CCl)c2ccccc2N1C(=O)CCl (stereo not given) meets or exceeds 30 µM.
Response: n

----------
System: HL-60(TB) leukemia
EXPERIMENTAL_DETAILS: NCI tumour cell line growth inhibition, 48 h
MEASURED_METRIC: GI50

- CNC(=O)c1c(NC(=O)c2ccc(C(C)(C)C)cc2)sc2c1CCC(=O)C2: 261 nM
- Cc1ccc(/C=N/Nc2nc(Nc3ccccc3)nc(-n3nc(C)cc3C)n2)cc1: 2510 nM
- COc1ccc(-c2nc(-c3ccc(C)cc3)cn3ccnc23)cc1: 2580 nM
- CCN(CC)CCCNc1cc(OC)cc2nc3cc(Cl)ccc3nc12: 2220 nM
- COCc1c(-c2cc3cc(C)cc(OC)c3s2)c2c(N)ncnn2c1CN1CCNC(=O)C1: 8710 nM

Query: Could you share which GI50 value was measured for COC12C=C/C(=C(/C(=O)OCc3ccccn3)C(=O)CCCCCCCCC3(OC)C=C/C(=C(/C(=O)OCc4ccccn4)C(=O)CCCCCCCC1)O3)O2 ?
Response: 306 nM

Query: Could you share which GI50 value was measured for CCc1ccc(CCC(=O)Nc2ncc(Cc3ccc(Cl)cc3)s2)o1 ?
Response: 289 nM

Query: Could you share which GI50 value was measured for Cn1cc(-c2ccc3cc(-c4ccc(CC(=O)Nc5cc(C(C)(C)C)on5)cc4)cnc3c2)cn1 ?
Response: 2660 nM

Query: Could you share which GI50 value was measured for COc1ccc(C/C(=C(\C)c2ccc(OCCN3CCCC3)cc2)c2ccc(OCCN3CCCC3)cc2)cc1 ?
Response: 1670 nM

Query: Could you share which GI50 value was measured for CCC(C)Nc1ccc(N)cc1 (centres undefined) ?
Response: 1480 nM

Query: Could you share which GI50 value was measured for CCN(CC)CCN1C(=O)c2c(c3c4ccccc4[nH]c3c3ccc4ccccc4c23)C1=O ?
Response: 2040 nM

Query: Could you share which GI50 value was measured for CCN(Cc1ccccc1)C1CCN(Cc2cc(Br)ccc2O)CC1 ?
Response: 31300 nM

Query: Could you share which GI50 value was measured for Cc1ccccc1NC(=O)c1sc2nc(C)c(C(=O)/C=C/c3ccccc3)cc2c1N ?
Response: 922 nM

Query: Could you share which GI50 value was measured for COc1ncc(Nc2ncc([C@@H](C)N3CCN(S(C)(=O)=O)CC3)cc2-c2nc(C)nc(N)n2)cc1F ?
Response: 21.4 nM
